Exercise: for every item that follows, state its recorded pEC50.
- subjectOfTest: LHRH receptor (LHRH binding sites) on EFO-27 human ovarian cancer cells (human)
- protocolNotes: competition with [125I-Tyr8]BRU-2477, EFO-27 cells
Non-standard residues stand in square brackets, D forms with d. Bpa = N[C@@H](Cc1ccc(C(=O)c2ccccc2)cc1)C(=O)O; DO3A10CM = not defined here; Ahgly = not defined here; azaGly = NNC(=O)O
Numbers only, as −log10 of the molar value.

# annotated cases, reported pEC50 shown
binder	obsValue
XXRWSHXWXPX (N-terminal DO3A10CM; Ambz4 linker before 1; Dnal2 at 1; Darg at 6; Bpa4 at 8; azaGly-NH2 at 10) [BRU-2963]	6.55
XRWSHXWXP (Sar at 1; Darg at 6; Bpa4 at 8; C-terminal Bampy26 linker carrying DO3A10CM) [BRU-3080]	6.64
XHWSHXWXPX (Ac-Amfe4 at 1; Darg at 6; Bpa4 at 8; azaGly-NH2 at 10) [BRU-2839]	6.60
RRWSHXWXPX (N-terminal DO3A10CM; Darg at 6; Bpa4 at 8; azaGly-NH2 at 10) [BRU-3050]	6.51
XRWSHXWXP (Sar at 1; Darg at 6; Bpa4 at 8; C-terminal Dabt14 linker carrying DO3A10CM) [BRU-3041]	6.44

Below is a list of binders. For each, state its recorded pEC50.
1. XRWSHXWXP (N-terminal DO3A10CM; Dnal2 at 1; Darg at 6; Bpa4 at 8; C-terminal Mo2abn at 10) [BRU-3020]
2. DO3A10CM-G[Ahgly]HWSH[dR]W[Bpa]P[azaGly]-NH2 (reading uncertain) [BRU-2876]

result:
1: 6.35; 2: 6.30

This collection of values is drawn from patent US20120045393A1.
